- System: MS2 coat protein
- measurement-description: apparent KD of MS2 coat protein; higher = weaker reporter binding
- cond: Eterna round: R107; input ligand: theophylline 2 mM

biosequence: ACAUGAGGAUCACCCAUGUAAUUAACAGAAGGAGCGUGAUGGAUCACAGGUAGGUCGCUGUACUUAGAAAUAACUCUCAUGAAUA [JR_Nu_SSArginiA_Sub024]
apparent KD of MS2 coat protein (nM): 16.6
//
biosequence: GCGGUGGGUCAAAAGUAAUAGAAUUCUGAAGGAGCGUGAUGAAACACAGGUAGGUCGCAGGAACAUGAGGAUCACCCAUGUACGG [Same State Arginine A GF21]
apparent KD of MS2 coat protein (nM): 37.5
//
biosequence: GAUUCGCAGUCGGCCGCCACUAACAUGAGCUGCUAGUUAUUAUCACAUGAGGAUCACCCAUGUCUUAGGACCGGGACAACCUGUU [theeternabot_sameState_MS2_Trp_B_26]
apparent KD of MS2 coat protein (nM): 85.3
//
biosequence: UAGUCCGCGACGGCCGCCACUCGCUGAUGCACAUGUGUCCGGGACAUGAGGAUCACCCAUGUUUCGAGGACCGGGUCGAUCCUAA [Same State Tryptophan B GF 5]
apparent KD of MS2 coat protein (nM): 91.6
//
biosequence: GUCAGAACAUAUCAUGUUCUGGCACUGGAAGGAGCGAGCGAGAGCUCAGGUAGGUCGCCAGAACAUGAGGAUCACCCAUGUAAUA [(A)''-(M)'-(A)'(Arg1)-(Arg2)-(M1)-(M2)_Design11]
apparent KD of MS2 coat protein (nM): 296
//
biosequence: UUCAGCUAGUCGGCCGCCACUACAUGAGGAUCACCCAUGUAUCCUAAACACUGCUUCGGCAGUGGUAGGACCGGGACUAGCUGAG
apparent KD of MS2 coat protein (nM): 18.3
//
biosequence: GGAGUAGGAAACUAUUCCAAUCCUCGUGAACGAGGACCGGUACGGCCGCCACUCGAUAAAUAAAUACAUGAGGAUCACCCAUGUA [Ex Tryptophan A 22]
apparent KD of MS2 coat protein (nM): 34.1
//
biosequence: AAUAGCAUGAGGAUCACCCAUGUAAAAGAUACCAGAGUGAUGAUCCUCCCUUGGCAGCUUAACGCUGAUUGAUUACAAUCAGCGA
apparent KD of MS2 coat protein (nM): 229
//
biosequence: AAAAUAAUGGCGGCCGCCACUAACUCAUAUACAUCAUGUACAUGAGGAUCACCCAUGUAGGUGUAUAGGACCGGGCCAUAAUUAA [39MS split4]
apparent KD of MS2 coat protein (nM): 18.8
//
biosequence: AAAAUCCUACCUGAGGAUCACCCGGGUGAAGGAGCGCCCGAAAGGGCAGGUAGGUCGCACCUGAGGAUCACCCUGGUAAACCUAA [ArgEX 23 #DoubleMS2 #OpenEnded]
apparent KD of MS2 coat protein (nM): 234
//
biosequence: AAUAAACAUGAGGAUCACCCAUGUAUGGAAGGAGCGGUGAAUAAACCAGGUAGGUCGCCAGUGUGAGGGUCAUCUAUGUAAUCAA [Exclusion - Arginine A (Freestyle 3)]
apparent KD of MS2 coat protein (nM): 49.3
//
biosequence: AUGCAUAGCGGAAGGAGCGCAAUAGAAUGACAUGAGGAUCACCCAUGUAUGUGAUGUGGGUUGCAGGUAGGUCGCCGAGUGGUAU [Exclusion - Arginine B (Freestyle 1)]
apparent KD of MS2 coat protein (nM): 62.6
